Origin of values: the supplement of paper PMC12632987

Target: GABARAPL2, P60520
Sequence (P60520 whole entry, the tested form may be a part): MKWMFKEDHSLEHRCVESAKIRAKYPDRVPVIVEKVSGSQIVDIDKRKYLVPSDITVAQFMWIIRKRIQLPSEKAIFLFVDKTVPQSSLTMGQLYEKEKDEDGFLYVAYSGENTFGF
Assay: median log2 fold change of GCK-ALFA target abundance (FLAG IP / Myc IP barcode read proportion) (log2 ratio); each designed protein is fused to an ALFA-tag nanobody in HEK293 cells to bring the named protein to FLAG-tagged glucokinase (GCK); Myc marks an untargeted standard; higher = target protein stabilised (more abundant)
Conditions: target protein: 3xFLAG-MCP-GCK-ALFA reporter; HEK293 landing pad (RPLP)
property-name: median log2 fold change
Give the value as a plain number.

Task: Return reported median log2 fold change. Input binder: GBRAPL2_128_7281 (protein) MKLVTIDIDVENEEEYELVKKVLDEIIEKGSPEVADLADAAKDMLEESKKEGFKEKVSVADILSDEEAEELKKLFEELAKKYGEEKVNKHIELEIDDLPP
Result: -0.33

Task: Retrieve median log2 fold change measured for GBRAPL2_85_7421 (protein) TEKVTIVAHTLEEVVDMSVDVLEALEPKGTVEIEGIVAVPSSELEKALKELPKAAEELKKRLEELAKKRPGLTINAEIRIFNLDTKEFHPKVEKFTVKNE and print it.
Result: 0.266

Task: Return value of median log2 fold change for input GBRAPL2_0_7195 (protein) VEEEIERISELPIEEAAEEGVRLVERVVADPSFTDEEKVEVALRVVDILAKKVKEEKTEEAEDIYVEALDEIRKLLLSVGPELANYVYAEGGSELMEIES , no commentary.
Result: 0.163

Task: Look up and report measured median log2 fold change for this entry: GBRAPL2_151_7307 (protein) SRKEEAIRLLEEAARTAEEAVEALPESKELEKTELELLAGGLDALAILVEEEDDEEKVRELVKEGAELTEDAARLARELGLEEQARRLEELSRRLKELAE
Result: -0.403

Task: Determine from records and report median log2 fold change for GBRAPL2_175_7327 (protein) SEMEELIKRLVELLLRLAEKLDGLASDLLLAAAALLEEEGVDAAKRAAELVKEAAKEIKDNPKLKAAAEELARALKLIAEGAPPEEVKKELEKAEKLLEE
Result: 0.118

Task: Return reported median log2 fold change. Input binder: GBRAPL2_83_7417 (protein) VKKLKVITHDIEIKSENITEEEALDMAGDVAAELRKHGIKTVVGVERENGVVKVELESIMEDNEEKEKLVHEEVEKLVEELKKKGAEVKVETEEEIVEVE
Result: 0.0338

Task: Query median log2 fold change for GBRAPL2_53_7344 (protein) MIEVDIAHPDKEVMAKAVEAVFDILEEAGVEAEVEVTKEDGTVERLRGPLEEVREKAVKLAKETEVLVTIRLPDSAEEVVEKIEDEALKHGATVSVKRLE
Result: 0.23

Task: Read off the recorded median log2 fold change for GBRAPL2_63_7393 (protein) STWARVLRLILEHATIDLETAERLEAALESNASDEELFATLVEALQDIRPELTPEQARDIAAKLARLAERSEALAAEAVRRLDTMSLEEFLAHLDALVAA
Result: 0.216

Task: Fill in median log2 fold change for record GBRAPL2_128_7275 (protein) MKIVEIDVDIKNEEQYNLALEILDEIAENSSPAVADLADAAKDLAESSKERGFDENVTAVDVLSEEDAEELRRIYEEIAEKLGREKVESVVRLEISDLEP
Result: -0.585

Task: # return recorded median log2 fold change for input GBRAPL2_0_7215 (protein) MEELVEEAKKLSVEEAAELFVKRVEELVESGKATREELEALVEAAAKVLGEKIKKNKNEEDLDIAAEAADRIREILAKVDPELAAYADSEIGAEIMEAFS
Result: 0.0633

Task: Read the entry GBRAPL2_93_7423 (protein) MKVKVTVIELENGEVVRREERELSVEEAKELIRELLAEAIAAGNRVIIEIYDKETGWTFGYYAEDEEQAEKAYERTSEVLEDLAAEGKEVEVTITIERLE and write its reported median log2 fold change.
Result: -0.302

Task: Assign median log2 fold change to the following record: GBRAPL2_0_7260 (protein) MEEVLEKMKKLSLEEATKLAKEYLEKLRADPNVTKEEFEEAAEKLLEVLAEKAKKEKTEEALELFDEFVDYFTELAKKIDPNLAAYIASYGGSLLYEIES
Result: 0.248

Task: Return value of median log2 fold change for input GBRAPL2_0_7221 (protein) MEKLVEEMKKLSVEEAAERFVKEIKEAVESGKYSLDEIAELIEAMAKVLGELLKKNKKEEDFDIAMKAADEVRKILEKVDPNLAAYAYSEIGAEIMEAEE , no commentary.
Result: 0.0252

Task: State, in one line, measured median log2 fold change of GBRAPL2_128_7270 (protein) MKIVELDVNVKDEESYELALEILDEIAKNSSPEVKDLAEAARDLVEEAKKRGFGENVTAVDILSDEDAEELKKIYEELKKKYGEEKVNSVLELEISDVPP
Result: -0.268

Task: Consider the binder GBRAPL2_54_7379 (protein) MKIVEVEITYLATGNEEELKKVEEVAKKKVEEFKKELEEKYGAKTTTSVEIEDGVLSYTVTVITKEENLDEVIDKALEMAKEIEKETGVKVSVVIGTKEL and give its recorded median log2 fold change.
Result: -0.192

Task: Please supply the value of reported median log2 fold change for the item GBRAPL2_54_7378 (protein) MKIVEVEVDYIAQGNDEELEKVEKVAKEELAKLTEELAKKYGAKTTTSVEREDGVLSVTLTVIVKESDLDAVIDLALETAKRIEEKTGVKVSVVIGTKEL
Result: -0.111

Task: Answer with the recorded median log2 fold change of GBRAPL2_0_7252 (protein) MEELLKELLSLSLEEAKAAIEKLAEEVIKLIEKDPEKGLKAAEELAEVFAEYLIERKNEELEEAIVKAIDKLVKEVAKVDPNKAAYIDSIIGSAIMEVEG only.
Result: 0.0463

Task: Give the measured median log2 fold change for GBRAPL2_53_7351 (protein) MYRVLIGHPDKEVMVKALEKVFEILEEAGVEAKVKVTKEDGTVIELEGPIKEIKEETLKLAKEQPILVEIELPDEAEEVVEKIVDAALEAGATVSVEKVE
Result: 0.157

Task: // fetch median log2 fold change given entry GBRAPL2_53_7365 (protein) MTLVEVEHVDPEKMRAAAKKIAEVAKKHGLKIKVVFVDDEANVTEVTANAEEALKIAEEWIEKGHVILEVELPDDLEEVKEEIIDIAAEEGAVVSVEELE
Result: 0.0119
